Test system: THRa homodimer (NR concentration 90 nM)
Test protocol: PBM binding z-score (relative to random genomic background probes); higher = stronger binding; sequences stand for … in GC…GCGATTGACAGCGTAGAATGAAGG
Returns one of met or not met; met when PBM binding z-score is >= 0.9.

# Biosequence, Assigned label
records = [
    ("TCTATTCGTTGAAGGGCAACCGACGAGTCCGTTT", "not met"),
    ("TCAGACAGGTGAAGGTATCTCAGGTACGCAGTCG", "not met"),
    ("CCTACTGGGCCACGAACGGTCATTGATTCAGTGA", "not met"),
    ("ATCTCTAGGTAACCAAGTTCAGTTAATGCCGAAC", "met"),
    ("CCAGACAGGTGAAACGTAACTCAGTCTGGTACGC", "not met"),
    ("ATCTCTAGGTAAGACTCAGTTCAGAGAAGAACGC", "not met"),
    ("CAAACTAGGTCAAAGGGCAAAGTCGAGCCAACCA", "not met"),
    ("CCTACTTGGCCATTCAGAGGTCATTGATCATATG", "met"),
    ("TCTTGTAGATCAATAGAGGTTAAGGAAGTGCGCT", "not met"),
    ("AGTCAAAGTTCACTAGGTAAGGTAAGATTCAGCT", "met"),
    ("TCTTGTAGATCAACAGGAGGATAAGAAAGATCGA", "not met"),
    ("AGAACGAGGGCACGCTGAGTTGATAGTAGAGTAG", "not met"),
    ("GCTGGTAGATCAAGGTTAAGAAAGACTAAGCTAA", "not met"),
    ("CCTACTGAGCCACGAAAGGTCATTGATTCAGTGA", "met"),
    ("TGGAGTAGGTTACCAATGGGGCATTCAGCTTTCT", "not met"),
    ("AATACAGGGTCACTAGGCCAGAGTTGGTACGAAT", "met"),
    ("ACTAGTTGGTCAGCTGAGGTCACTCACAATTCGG", "met"),
    ("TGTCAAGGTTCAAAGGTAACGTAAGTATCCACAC", "not met"),
    ("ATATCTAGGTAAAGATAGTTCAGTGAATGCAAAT", "not met"),
]

---

Test system: LXRa homodimer (NR concentration 270 nM)
Test protocol: PBM binding z-score (relative to random genomic background probes); higher = stronger binding; sequences stand for … in GC…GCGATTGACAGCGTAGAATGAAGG

# Biosequence, PBM binding z-score
data = [
    ("CCTAGTTGGTCAGGAGGTCACCCACCGGATATGA", 1.59),
    ("CCTGCTGGGTCATGGTCAGCTAATCTACAGTATG", -0.658),
    ("CCTACTGGGCCATGGTCATTGATCAGTCAAAGCA", -0.591),
    ("TGAATGAGGTTAATGATCAGGGAACGTGGCGTCG", -0.115),
    ("CAGACTGGGGCAAAGGTTACCATACTCAGTACGA", 0.0267),
    ("CGTCCAAGGTCAGCAGGTCAGTGAGAGCGACGTG", 0.541),
    ("TCATATAGGTAAAAGGTGCAAGTCGGTGTGGTAA", 0.188),
    ("CGTCCAAGGTAAAGGTCAGTGAAAGAGACTCGAA", 0.618),
    ("ATATGTAGGTTACATCCGGGTAATTCAGGCTATG", 1.24),
    ("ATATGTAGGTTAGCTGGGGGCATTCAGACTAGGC", 0.963),
    ("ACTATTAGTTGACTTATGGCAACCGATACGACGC", 0.179),
    ("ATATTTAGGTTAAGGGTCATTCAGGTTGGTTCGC", 3.91),
    ("GCTTATAGATCAAGGTTAAGAAAGACTAAGCTAA", -0.148),
]
